Tested on: ME-180 (Cervical Carcinoma)
Test Details: Bliss excess, mean over the matrix (fraction); higher = more synergy
Each entry below carries its reported Bliss excess.
Endpoint Name: Bliss excess

* Cc1c2c(nn1C)CSCc1cc(n(C)n1)CSc1cc(c3ccccc3c1)OCCCc1c(C(=O)O)n(C)c3c-2c(Cl)ccc13 [AZD5991] + Cc1cc2ncnn2cc1Nc1ncc2c(n1)n(C1CCOCC1)c(=O)n2C [AZD7648] (first compound max 1 µM, 7x7, partner max 10 µM) | -0.009
* COc1nnc2ccc(N3CCC(c4ccc(OCCN5CCN(C)C(=O)[C@H]5C)cc4)CC3)nn12 [AZD5153] + Cc1c2c(nn1C)CSCc1cc(n(C)n1)CSc1cc(c3ccccc3c1)OCCCc1c(C(=O)O)n(C)c3c-2c(Cl)ccc13 [AZD5991] (first compound max 1 µM, 7x7, partner max 1 µM) | -0.0435
* CC1(C)CCC(CN2CCN(c3ccc(C(=O)NS(=O)(=O)c4ccc(NCC5CCOCC5)c([N+](=O)[O-])c4)c(Oc4cnc5[nH]ccc5c4)c3)CC2)=C(c2ccc(Cl)cc2)C1 [Venetoclax] + Cc1cc2ncnn2cc1Nc1ncc2c(n1)n(C1CCOCC1)c(=O)n2C [AZD7648] (first compound max 1 µM, 7x7, partner max 10 µM) | 0.0013
* CS(=O)(=O)CCNCc1ccc(-c2ccc3ncnc(Nc4ccc(OCc5cccc(F)c5)c(Cl)c4)c3c2)o1 [Lapatinib] + NC1(c2ccc(-c3nc4ccn5c(=O)[nH]nc5c4cc3-c3ccccc3)cc2)CCC1 [MK-2206] (first compound max 10 µM, 7x7, partner max 10 µM) | 0.0315
* N#Cc1cnc(Nc2cc(NC[C@H]3CNCCO3)c(C(F)(F)F)cn2)cn1 [SRA737] + O=c1[nH]cc(F)c(=O)[nH]1 [5-Fluorouracil] (first compound max 10 µM, 7x7, partner max 20 µM) | 0.0272
* C[C@@H]1COCCN1c1cc(C2([S@](C)(=N)=O)CC2)nc(-c2ccnc3[nH]ccc23)n1 [AZD6738] + O=C(c1cc(Cc2n[nH]c(=O)c3ccccc23)ccc1F)N1CCN(C(=O)C2CC2)CC1 [Olaparib] (first compound max 10 µM, 7x7, partner max 10 µM) | 0.0056
* C[C@@H]1COCCN1c1cc(C2([S@](C)(=N)=O)CC2)nc(-c2ccnc3[nH]ccc23)n1 [AZD6738] + C1CC(C1)(C(=O)[O-])C(=O)[O-].N.N.[Pt+2] [Carboplatin] (first compound max 10 µM, 7x7, partner max 10 µM) | -0.013

====

Each entry below carries its reported combination Emax.
Tested on: NCI-H1838 (Lung Adenocarcinoma)
Test Details: combination Emax (second highest fraction inhibited in the dose matrix, 72 h); higher = more inhibition; extreme values may be limits of the assay
Endpoint Name: combination Emax

• COc1cc2ncnc(Nc3ccc(F)c(Cl)c3)c2cc1OCCCN1CCOCC1 [Gefitinib] + CC(C)n1c(=O)n(C)c2cnc3cc(F)c(-c4ccc(OCCCN5CCCCC5)nc4)cc3c21 [AZD1390] (first compound max 10 µM, 7x7, partner max 0.3 µM) = 0.19
• CN(CCO)CC[C@H](CSc1ccccc1)Nc1ccc(S(=O)(=O)NC(=O)c2ccc(N3CCC([C@@H](O)c4ccccc4-c4ccc(Cl)cc4)CC3)cc2)cc1S(=O)(=O)C(F)(F)F [AZD4320] + C[C@@H](Nc1cc(F)cc(F)c1)c1cc(C(=O)N(C)C)cc2c(=O)cc(N3CCOCC3)oc12 [AZD8186] (first compound max 1 µM, 7x7, partner max 3 µM) = 0.258
• CN(CCO)CC[C@H](CSc1ccccc1)Nc1ccc(S(=O)(=O)NC(=O)c2ccc(N3CCC([C@@H](O)c4ccccc4-c4ccc(Cl)cc4)CC3)cc2)cc1S(=O)(=O)C(F)(F)F [AZD4320] + CN(C)CCCOc1ccc(-c2ccc3ncc4c(c3c2)n(C2CCOCC2)c(=O)n4C)cn1 [AZD0156] (first compound max 1 µM, 7x7, partner max 1 µM) = 0.225

====

Tested on: COLO-679 (Melanoma)
Test Details: combination Emax (second highest fraction inhibited in the dose matrix, 72 h); higher = more inhibition; extreme values may be limits of the assay
Each entry below carries its reported combination Emax.
Endpoint Name: combination Emax

* C[C@@H]1COCCN1c1cc(C2([S@](C)(=N)=O)CC2)nc(-c2ccnc3[nH]ccc23)n1 [AZD6738] + Nc1ccn([C@@H]2O[C@H](CO)[C@@H](O)C2(F)F)c(=O)n1 [Gemcitabine] (first compound max 10 µM, 7x7, partner max 0.3 µM) | 0.82
* Cc1c2c(nn1C)CSCc1cc(n(C)n1)CSc1cc(c3ccccc3c1)OCCCc1c(C(=O)O)n(C)c3c-2c(Cl)ccc13 [AZD5991] + CS(=O)(=O)CCNCc1ccc(-c2ccc3ncnc(Nc4ccc(OCc5cccc(F)c5)c(Cl)c4)c3c2)o1 [Lapatinib] (first compound max 1 µM, 7x7, partner max 10 µM) | 0.188
* C[C@@H](Nc1cc(F)cc(F)c1)c1cc(C(=O)N(C)C)cc2c(=O)cc(N3CCOCC3)oc12 [AZD8186] + CC(=O)c1c(C)c2cnc(Nc3ccc(N4CCNCC4)cn3)nc2n(C2CCCC2)c1=O [Palbociclib] (first compound max 10 µM, 7x7, partner max 10 µM) | 0.269
* CC1(C)CCC(CN2CCN(c3ccc(C(=O)NS(=O)(=O)c4ccc(NCC5CCOCC5)c([N+](=O)[O-])c4)c(Oc4cnc5[nH]ccc5c4)c3)CC2)=C(c2ccc(Cl)cc2)C1 [Venetoclax] + C[C@@H]1COCCN1C2=NC(=NC(=C2)C3(CC3)[S@](=N)(=O)C)C4=C5C=CNC5=NC=C4 [AZD6738] (first compound max 1 µM, 7x7, partner max 10 µM) | 0.639
* CC1(C)CCC(CN2CCN(c3ccc(C(=O)NS(=O)(=O)c4ccc(NCC5CCOCC5)c([N+](=O)[O-])c4)c(Oc4cnc5[nH]ccc5c4)c3)CC2)=C(c2ccc(Cl)cc2)C1 [Venetoclax] + Cn1cnc2c(F)c(Nc3ccc(Br)cc3Cl)c(C(=O)NOCCO)cc21 [Selumetinib] (first compound max 1 µM, 7x7, partner max 3 µM) | 0.737
* CC1(C)CCC(CN2CCN(c3ccc(C(=O)NS(=O)(=O)c4ccc(NCC5CCOCC5)c([N+](=O)[O-])c4)c(Oc4cnc5[nH]ccc5c4)c3)CC2)=C(c2ccc(Cl)cc2)C1 [Venetoclax] + C=CCn1c(=O)c2cnc(Nc3ccc(N4CCN(C)CC4)cc3)nc2n1-c1cccc(C(C)(C)O)n1 [AZD1775] (first compound max 1 µM, partner max 1 µM) | 0.413

====

System: NCI-H2122 (Lung Adenocarcinoma)
Test Details: Bliss excess, mean over the matrix (fraction); higher = more synergy
Endpoint Name: Bliss excess

- NC1(C(=O)N[C@@H](CCO)c2ccc(Cl)cc2)CCN(c2ncnc3[nH]ccc23)CC1 [Capivasertib] + Cn1cnc2c(F)c(Nc3ccc(Br)cc3Cl)c(C(=O)NOCCO)cc21 [Selumetinib] (first compound max 10 µM, 7x7, partner max 10 µM): 0.0107
- COc1cccc(OCCCN)c1-c1cc(Nc2cnc(C#N)cn2)n[nH]1 [Prexasertib] + CN(C)CCCOc1ccc(-c2ccc3ncc4c(c3c2)n(C2CCOCC2)c(=O)n4C)cn1 [AZD0156] (first compound max 1 µM, 7x7, partner max 1 µM): -0.0115
- Cc1c2c(nn1C)CSCc1cc(n(C)n1)CSc1cc(c3ccccc3c1)OCCCc1c(C(=O)O)n(C)c3c-2c(Cl)ccc13 [AZD5991] + CC1(C)CCC(CN2CCN(c3ccc(C(=O)NS(=O)(=O)c4ccc(NCC5CCOCC5)c([N+](=O)[O-])c4)c(Oc4cnc5[nH]ccc5c4)c3)CC2)=C(c2ccc(Cl)cc2)C1 [Venetoclax] (first compound max 1 µM, 7x7, partner max 1 µM): 0.0016
- CN(C)CCCOc1ccc(-c2ccc3ncc4c(c3c2)n(C2CCOCC2)c(=O)n4C)cn1 [AZD0156] + C[C@@H]1COCCN1C2=NC(=NC(=C2)C3(CC3)[S@](=N)(=O)C)C4=C5C=CNC5=NC=C4 [AZD6738] (first compound max 1 µM, 7x7, partner max 10 µM): 0.0154

====

Tested on: EW-1 (Ewing's Sarcoma)
Test Details: Bliss excess, mean over the matrix (fraction); higher = more synergy
Please enter Y where Bliss excess is greater than or equal to -0.004, and N where it is lower.

- Cc1cc2ncnn2cc1Nc1ncc2c(n1)n(C1CCOCC1)c(=O)n2C [AZD7648] + C=CCn1c(=O)c2cnc(Nc3ccc(N4CCN(C)CC4)cc3)nc2n1-c1cccc(C(C)(C)O)n1 [AZD1775] (first compound max 10 µM, partner max 1 µM): Y
- Cc1c2c(nn1C)CSCc1cc(n(C)n1)CSc1cc(c3ccccc3c1)OCCCc1c(C(=O)O)n(C)c3c-2c(Cl)ccc13 [AZD5991] + C[C@@H](Nc1cc(F)cc(F)c1)c1cc(C(=O)N(C)C)cc2c(=O)cc(N3CCOCC3)oc12 [AZD8186] (first compound max 1 µM, 7x7, partner max 3 µM): N
- Cc1c2c(nn1C)CSCc1cc(n(C)n1)CSc1cc(c3ccccc3c1)OCCCc1c(C(=O)O)n(C)c3c-2c(Cl)ccc13 [AZD5991] + Cn1cnc2c(F)c(Nc3ccc(Br)cc3Cl)c(C(=O)NOCCO)cc21 [Selumetinib] (first compound max 1 µM, 7x7, partner max 3 µM): N
- CC1(C)CCC(CN2CCN(c3ccc(C(=O)NS(=O)(=O)c4ccc(NCC5CCOCC5)c([N+](=O)[O-])c4)c(Oc4cnc5[nH]ccc5c4)c3)CC2)=C(c2ccc(Cl)cc2)C1 [Venetoclax] + C[C@@H]1COCCN1C2=NC(=NC(=C2)C3(CC3)[S@](=N)(=O)C)C4=C5C=CNC5=NC=C4 [AZD6738] (first compound max 1 µM, 7x7, partner max 10 µM): N
- COc1nnc2ccc(N3CCC(c4ccc(OCCN5CCN(C)C(=O)[C@H]5C)cc4)CC3)nn12 [AZD5153] + C=CCn1c(=O)c2cnc(Nc3ccc(N4CCN(C)CC4)cc3)nc2n1-c1cccc(C(C)(C)O)n1 [AZD1775] (first compound max 1 µM, partner max 1 µM): N
- CN(CCO)CC[C@H](CSc1ccccc1)Nc1ccc(S(=O)(=O)NC(=O)c2ccc(N3CCC([C@@H](O)c4ccccc4-c4ccc(Cl)cc4)CC3)cc2)cc1S(=O)(=O)C(F)(F)F [AZD4320] + CN(C)CCCOc1ccc(-c2ccc3ncc4c(c3c2)n(C2CCOCC2)c(=O)n4C)cn1 [AZD0156] (first compound max 1 µM, 7x7, partner max 1 µM): Y
- Cc1nc(Nc2ncc(C(=O)Nc3c(C)cccc3Cl)s2)cc(N2CCN(CCO)CC2)n1 [Dasatinib] + CC(=O)Nc1cccc(-n2c(=O)n(C3CC3)c(=O)c3c(Nc4ccc(I)cc4F)n(C)c(=O)c(C)c32)c1 [Trametinib] (first compound max 2 µM, 7x7, partner max 1 µM): N
- CC1(C)CCC(CN2CCN(c3ccc(C(=O)NS(=O)(=O)c4ccc(NCC5CCOCC5)c([N+](=O)[O-])c4)c(Oc4cnc5[nH]ccc5c4)c3)CC2)=C(c2ccc(Cl)cc2)C1 [Venetoclax] + COc1cc(Nc2ncc3c(n2)-c2ccc(Cl)cc2C(c2c(F)cccc2OC)=NC3)ccc1C(=O)O [Alisertib] (first compound max 1 µM, 7x7, partner max 10 µM): Y
